Entry source: paper PMC11480844

# maps each entry to its ratio to parent
B1: H2-Kb / B10 (parent)
chain 1: GQQVQQSPASLVLQEGENAELQCNFSSTATRLQWFYQRPGGSLVSLLSNPSGTKHTGRLTSTTVTKERRGSLHISSSQITDSGTYLCAPGGSNAKLTFGKGTKLSVKS
chain 2: DPKIIQKPKYLVAVTGSEKILICEQYLGHNAMYWYRQSAKKPLEFMFSYSYQKLMDNQTASSRFQPQSSKKNHLDLQITALKPDDSATYFCASSLRGGNNQAPLFGEGTRLSVL
chain 3: not shown
chain 4: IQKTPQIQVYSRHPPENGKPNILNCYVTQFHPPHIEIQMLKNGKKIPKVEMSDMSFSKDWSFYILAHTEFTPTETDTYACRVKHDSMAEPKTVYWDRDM
chain 5: SIINFEKL

Variants of: B1
Assay: % of reporter cells activated (NFAT-GFP), raw; also: test concentration or dose not given here
Conditions: with B10; scale: % of reporter cells activated
Enter the number alone.

Example entries and their recorded answers appear below.
Can you share its ratio to parent? I mean this variant: chain 5 E6H
0.924

What about this variant? chain 5 I3Q
0.61

Likewise for chain 5 L8P ?
1.39

Lookup chain 5 I3C
0.746

What would you report for chain 5 E6F ?
1.74

# repeat for chain 5 S1I
1.1

Next:
# query: ratio to parent of entry chain 5 I2A
1.03

Moving on to the next variant: chain 5 F5A
1.31

Also, chain 5 I2Q please.
1.43

Now give it for chain 5 F5Q too.
1.64

Next record, please: chain 5 E6S
1.65

Note, next up: chain 5 L8T
0.915

Could you do the same for chain 5 N4G , please?
1.28

// next record chain 5 I2T
1.49

Check chain 5 L8E too.
1.53
